Recorded measurements of MIC Escherichia coli (GC 4559), one per entry
# Test system: Escherichia coli
# assayName: in vitro antibacterial evaluation, MIC by broth dilution
# Type: cell-based
# runConditions: 18 hours at 35° C., strain GC 4559
recordedEndpoint: MIC Escherichia coli (GC 4559) (µg/mL)

[[record]]
compound = "Cc1ccc(CC2OCC3OC(OC4C(CO)OC(Oc5ccc(CC6NC(=O)C(C(C)c7ccccc7)NC(=O)CNC(=O)C(CO)NC(=O)C(C(O)C7CNC(=N)N7C7OC(CO)C(O)C(O)C7O)NC(=O)C(C(O)C7CNC(=N)N7)NC6=O)cc5)C(O)C4O)C(O)C(O)C3O2)cc1 (stereo not shown)"
limitsign = "="
valueobserved = 32

[[record]]
compound = "CC(c1ccccc1)C1NC(=O)CNC(=O)C(CO)NC(=O)C(C(O)C2CNC(=N)N2C2OC(CO)C(O)C(O)C2O)NC(=O)C(C(O)C2CNC(=N)N2)NC(=O)C(Cc2ccc(OC3OC(CO)C(OC4OC5COC(c6cccs6)OC5C(O)C4O)C(O)C3O)cc2)NC1=O (stereo not shown)"
limitsign = "="
valueobserved = 32

[[record]]
compound = "CC(C)=CCCC(C)C1OCC2OC(OC3C(CO)OC(Oc4ccc(CC5NC(=O)C(C(C)c6ccccc6)NC(=O)CNC(=O)C(CO)NC(=O)C(C(O)C6CNC(=N)N6C6OC(CO)C(O)C(O)C6O)NC(=O)C(C(O)C6CNC(=N)N6)NC5=O)cc4)C(O)C3O)C(O)C(O)C2O1 (stereo not shown)"
limitsign = ">"
valueobserved = 64

[[record]]
compound = "CC(c1ccccc1)C1NC(=O)CNC(=O)C(CO)NC(=O)C(C(O)C2CNC(=N)N2C2OC(CO)C(O)C(O)C2O)NC(=O)C(C(O)C2CNC(=N)N2)NC(=O)C(Cc2ccc(OC3OC(CO)C(OC4OC5COC(Cc6ccc(F)cc6)OC5C(O)C4O)C(O)C3O)cc2)NC1=O (stereo not shown)"
limitsign = "="
valueobserved = 32


----------
# Tested on: Enterococcus sp.
# assayName: in vitro antibacterial evaluation, MIC by broth dilution
# Type: cell-based
# runConditions: broth dilution, 18 hours at 35° C.; strain GC 6189
recordedEndpoint: MIC Enterococcus faecalis (GC 6189) (µg/mL)

[[record]]
compound = "CC(c1ccccc1)C1NC(=O)CNC(=O)C(CO)NC(=O)C(C(O)C2CNC(=N)N2C2OC(CO)C(O)C(O)C2O)NC(=O)C(C(O)C2CNC(=N)N2)NC(=O)C(Cc2ccc(OC3OC(CO)C(OC4OC5COC(Cc6ccc(F)cc6)OC5C(O)C4O)C(O)C3O)cc2)NC1=O (centres unmarked) [Example 121]"
recordedendpoint = "MIC Enterococcus faecalis (GC 6189)"
valueobserved = 2

[[record]]
compound = "N=C1NCC(C(O)C2NC(=O)C(Cc3ccc(OC4OC(CO)C(OC5OC6COC7(OC6C6OC8(OC56)C5CC6CC(C5)CC8C6)C5CC6CC(C5)CC7C6)C(O)C4O)cc3)NC(=O)C(CC3CCCCC3)NC(=O)CNC(=O)C(CO)NC(=O)C(C(O)C3CNC(=N)N3C3OC(CO)C(O)C(O)C3O)NC2=O)N1 (centres unmarked) [Example 106b]"
recordedendpoint = "MIC Enterococcus faecalis (GC 6189)"
valueobserved = 8


----------
Recorded measurements of MIC Streptococcus pneumoniae (ATCC 6301), one per entry
# Test system: Streptococcus sp.
# assayName: in vitro antibacterial evaluation, MIC by broth dilution
# Format: cell-based
# runConditions: broth dilution, 18 hours at 35° C.
recordedEndpoint: MIC Streptococcus pneumoniae (ATCC 6301) (µg/mL)

[[record]]
molecule = "CC(C1CCCCC1)C1NC(=O)CNC(=O)C(CO)NC(=O)C(C(O)C2CNC(=N)N2C2OC(CO)C(O)C(O)C2O)NC(=O)C(C(O)C2CNC(=N)N2)NC(=O)C(Cc2ccc(OC3OC(CO)C(OC4OC5COC(c6ccccc6)OC5C(O)C4O)C(O)C3O)cc2)NC1=O (stereo not shown)"
limitsign = "<"
valueobserved = 0.12

[[record]]
molecule = "COc1ccc(COCC2OC(OC3C(CO)OC(Oc4ccc(CC5NC(=O)C(C(C)c6ccccc6)NC(=O)CNC(=O)C(CO)NC(=O)C(C(O)C6CNC(=N)N6C6OC(CO)C(O)C(O)C6O)NC(=O)C(C(O)C6CNC(=N)N6)NC5=O)cc4)C(O)C3O)C(O)C(O)C2O)cc1OCc1ccccc1 (stereo not shown)"
limitsign = "<"
valueobserved = 0.06

[[record]]
molecule = "COc1ccc(COCC2OC(OC3C(CO)OC(Oc4ccc(CC5NC(=O)C(C(C)c6ccccc6)NC(=O)CNC(=O)C(CO)NC(=O)C(C(O)C6CNC(=N)N6C6OC(CO)C(O)C(O)C6O)NC(=O)C(C(O)C6CNC(=N)N6)NC5=O)cc4)C(O)C3O)C(O)C(O)C2O)cc1F (stereo not shown)"
limitsign = "="
valueobserved = 0.5

[[record]]
molecule = "CC(c1ccccc1)C1NC(=O)CNC(=O)C(CO)NC(=O)C(C(O)C2CNC(=N)N2C2OC(CO)C(O)C(O)C2O)NC(=O)C(C(O)C2CNC(=N)N2)NC(=O)C(Cc2ccc(OC3OC(CO)C(OC4OC(COC(=O)NCc5ccccc5)C(O)C(O)C4O)C(O)C3O)cc2)NC1=O (stereo not shown) [Example 257b]"
limitsign = "="
valueobserved = 0.25

